Data origin, for the record: paper PMC12416549

Collected apparent Kd (screen) values appear next to each entry.
target: T1, TNFR1 (Homo sapiens, UniProt P19438)
T1 chain: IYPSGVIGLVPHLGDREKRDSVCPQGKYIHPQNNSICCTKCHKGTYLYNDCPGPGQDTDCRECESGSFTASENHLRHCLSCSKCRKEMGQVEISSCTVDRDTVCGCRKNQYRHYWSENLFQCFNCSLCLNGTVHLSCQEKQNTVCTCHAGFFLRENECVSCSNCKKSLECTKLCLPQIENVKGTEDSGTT
protocolText: yeast display SC50
propertyMeasured: apparent Kd (screen) (pM)

INSERT INTO assay_data (binder, propertymeasured, measurednumber) VALUES
  ('V100D (designed binder) MTLQELLREEALRRAEAEAFRYALELLAEKFPEQKEYLLDLAEEIESQIRSLSGVDVEDVRKFLDKEWAWVKELLAEHPAELAEVEAARAARLAELRAEDEAKVAA', 'apparent Kd (screen)', 593),
  ('V104I (designed binder) MTLQELLREEALRRAEAEAFRYALELLAEKFPEQKEYLLDLAEEIESQIRSLSGVDVEDVRKFLDKEWAWVKELLAEHPAELAEVEAARAARLAELRAEVEAKIAA', 'apparent Kd (screen)', 718),
  ('L6Y (designed binder) MTLQEYLREEALRRAEAEAFRYALELLAEKFPEQKEYLLDLAEEIESQIRSLSGVDVEDVRKFLDKEWAWVKELLAEHPAELAEVEAARAARLAELRAEVEAKVAA', 'apparent Kd (screen)', 5310),
  ('A69L (designed binder) MTLQELLREEALRRAEAEAFRYALELLAEKFPEQKEYLLDLAEEIESQIRSLSGVDVEDVRKFLDKEWLWVKELLAEHPAELAEVEAARAARLAELRAEVEAKVAA', 'apparent Kd (screen)', 490),
  ('P79S (designed binder) MTLQELLREEALRRAEAEAFRYALELLAEKFPEQKEYLLDLAEEIESQIRSLSGVDVEDVRKFLDKEWAWVKELLAEHSAELAEVEAARAARLAELRAEVEAKVAA', 'apparent Kd (screen)', 593),
  ('V100C (designed binder) MTLQELLREEALRRAEAEAFRYALELLAEKFPEQKEYLLDLAEEIESQIRSLSGVDVEDVRKFLDKEWAWVKELLAEHPAELAEVEAARAARLAELRAECEAKVAA', 'apparent Kd (screen)', 446),
  ('E9L (designed binder) MTLQELLRLEALRRAEAEAFRYALELLAEKFPEQKEYLLDLAEEIESQIRSLSGVDVEDVRKFLDKEWAWVKELLAEHPAELAEVEAARAARLAELRAEVEAKVAA', 'apparent Kd (screen)', 718),
  ('V104M (designed binder) MTLQELLREEALRRAEAEAFRYALELLAEKFPEQKEYLLDLAEEIESQIRSLSGVDVEDVRKFLDKEWAWVKELLAEHPAELAEVEAARAARLAELRAEVEAKMAA', 'apparent Kd (screen)', 653);
